Biological target: recombinant human RIIalpha (commercial sample) (human) (UniProt P13861)
Sequence (P13861 whole entry): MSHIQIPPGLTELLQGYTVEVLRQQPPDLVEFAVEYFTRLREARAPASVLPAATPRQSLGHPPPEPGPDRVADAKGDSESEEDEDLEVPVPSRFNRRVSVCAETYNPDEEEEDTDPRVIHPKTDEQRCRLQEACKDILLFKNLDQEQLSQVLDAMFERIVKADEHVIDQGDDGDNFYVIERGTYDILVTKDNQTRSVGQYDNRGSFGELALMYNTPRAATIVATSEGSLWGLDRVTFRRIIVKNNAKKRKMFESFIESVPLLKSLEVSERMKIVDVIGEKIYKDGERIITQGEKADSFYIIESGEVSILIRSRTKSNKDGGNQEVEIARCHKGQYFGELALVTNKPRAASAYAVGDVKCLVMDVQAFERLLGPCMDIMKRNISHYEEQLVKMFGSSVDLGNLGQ
Assay: equilibrium SE-HPLC
measurement_type: pKd
# pKd: negative log10 of molar concentration; output just the value

Query block: Entry PKSCGGGGSGGGGSGGGGSQIEYLAKQIVDNAIQQA (Fab, part only; not given: h679 Fd and light chain, part only) [h679-Fab-AD1] : reported pKd = ?
Result block: 7.52
